Test System: human α1G T-type channels (Homo sapiens)
Construct: expressed in transfected cells; host or cells: HEK 293
Sequence (O43497 whole entry): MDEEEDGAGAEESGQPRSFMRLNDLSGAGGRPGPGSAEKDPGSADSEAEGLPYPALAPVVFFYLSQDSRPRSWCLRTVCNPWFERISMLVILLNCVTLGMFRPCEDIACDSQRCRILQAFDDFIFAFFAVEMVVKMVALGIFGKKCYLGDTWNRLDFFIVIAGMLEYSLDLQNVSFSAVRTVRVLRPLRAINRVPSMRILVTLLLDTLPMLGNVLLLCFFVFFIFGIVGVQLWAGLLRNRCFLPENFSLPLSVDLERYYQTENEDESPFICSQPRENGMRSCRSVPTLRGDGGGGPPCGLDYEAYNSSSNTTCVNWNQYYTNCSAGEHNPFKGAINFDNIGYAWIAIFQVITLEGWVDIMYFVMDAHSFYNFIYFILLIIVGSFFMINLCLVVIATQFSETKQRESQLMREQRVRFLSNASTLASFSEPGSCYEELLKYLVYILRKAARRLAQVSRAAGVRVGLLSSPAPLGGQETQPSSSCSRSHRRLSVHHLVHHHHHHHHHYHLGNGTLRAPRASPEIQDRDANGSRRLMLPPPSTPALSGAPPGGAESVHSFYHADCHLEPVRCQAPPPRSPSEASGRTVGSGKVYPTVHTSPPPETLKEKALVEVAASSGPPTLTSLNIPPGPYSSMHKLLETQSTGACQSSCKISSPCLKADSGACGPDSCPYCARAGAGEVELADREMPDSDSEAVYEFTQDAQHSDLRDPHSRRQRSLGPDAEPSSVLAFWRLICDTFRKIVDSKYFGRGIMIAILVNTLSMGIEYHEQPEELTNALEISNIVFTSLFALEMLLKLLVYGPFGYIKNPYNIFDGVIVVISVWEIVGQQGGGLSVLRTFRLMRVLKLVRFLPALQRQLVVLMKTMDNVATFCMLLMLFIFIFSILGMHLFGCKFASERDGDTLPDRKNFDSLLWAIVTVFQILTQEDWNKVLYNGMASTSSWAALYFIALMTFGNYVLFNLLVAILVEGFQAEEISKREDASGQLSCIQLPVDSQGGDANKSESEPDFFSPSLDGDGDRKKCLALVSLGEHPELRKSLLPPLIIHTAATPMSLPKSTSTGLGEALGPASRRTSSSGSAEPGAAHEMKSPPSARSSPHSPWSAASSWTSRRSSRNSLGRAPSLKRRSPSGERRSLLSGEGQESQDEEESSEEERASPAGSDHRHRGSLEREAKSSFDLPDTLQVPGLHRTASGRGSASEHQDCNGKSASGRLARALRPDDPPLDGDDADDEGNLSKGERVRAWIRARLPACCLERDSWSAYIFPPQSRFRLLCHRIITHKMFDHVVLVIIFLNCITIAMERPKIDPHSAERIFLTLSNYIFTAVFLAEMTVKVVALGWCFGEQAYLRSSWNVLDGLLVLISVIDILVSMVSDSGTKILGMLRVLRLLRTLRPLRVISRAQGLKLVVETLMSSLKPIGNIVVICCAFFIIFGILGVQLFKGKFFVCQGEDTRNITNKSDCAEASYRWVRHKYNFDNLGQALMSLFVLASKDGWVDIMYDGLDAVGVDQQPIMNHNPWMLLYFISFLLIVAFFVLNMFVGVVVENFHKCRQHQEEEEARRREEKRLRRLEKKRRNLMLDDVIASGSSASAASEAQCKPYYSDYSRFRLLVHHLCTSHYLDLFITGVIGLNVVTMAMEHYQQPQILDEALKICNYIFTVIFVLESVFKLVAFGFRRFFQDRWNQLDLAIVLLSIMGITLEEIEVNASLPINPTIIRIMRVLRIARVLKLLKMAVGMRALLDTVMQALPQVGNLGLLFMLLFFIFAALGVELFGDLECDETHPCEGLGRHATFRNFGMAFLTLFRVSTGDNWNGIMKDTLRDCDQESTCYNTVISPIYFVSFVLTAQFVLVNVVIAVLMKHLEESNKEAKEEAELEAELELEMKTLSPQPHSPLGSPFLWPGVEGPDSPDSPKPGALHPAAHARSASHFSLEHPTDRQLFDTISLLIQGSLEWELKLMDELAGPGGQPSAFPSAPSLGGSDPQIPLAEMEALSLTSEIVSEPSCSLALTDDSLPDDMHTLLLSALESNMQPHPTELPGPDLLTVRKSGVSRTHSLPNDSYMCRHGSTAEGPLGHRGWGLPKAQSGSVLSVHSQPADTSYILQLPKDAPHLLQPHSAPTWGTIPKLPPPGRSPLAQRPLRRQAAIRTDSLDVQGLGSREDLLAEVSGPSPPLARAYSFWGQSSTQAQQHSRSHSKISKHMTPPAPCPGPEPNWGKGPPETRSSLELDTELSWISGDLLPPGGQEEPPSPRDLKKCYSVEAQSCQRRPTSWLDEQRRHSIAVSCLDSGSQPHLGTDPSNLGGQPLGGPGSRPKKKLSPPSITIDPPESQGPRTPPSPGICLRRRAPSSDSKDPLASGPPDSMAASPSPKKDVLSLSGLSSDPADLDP
Protocol Text: T-type calcium channel block, whole cell patch clamp in HEK cells (α1G)
Assay type: cell-based
Particulars: HEK cells, patch clamp, mainly non-inactivated protocol; values above 10 μM shown as 10 μM, below 0.30 μM shown as 0.30 μM; read-out: T-type Calcium Channel Block α1G IC50
Quantity: pIC50
Recall that pIC50 is obtained by taking minus log10 of the concentration measured in molar.

Consider the molecule Cc1cc(F)cc(C(=O)NCC2CCN(CCNC(=O)C3(C(F)(F)F)CC3)CC2)c1 . State its measured pIC50.
6.11

Consider the molecule CC(C)(C)NC(=O)NC1(CN2CCC(CNC(=O)c3cc(C(F)(F)F)cc(C(F)(F)F)c3)CC2)CCCC1 . State its measured pIC50.
6.32

Consider the molecule COc1cc(Cl)cc(C(=O)NCC2CCN(CCNS(=O)(=O)C3CC3)CC2)c1 . State its measured pIC50.
5.39

Consider the molecule CC(C)(C)N/C(CN1CCC(CNC(=O)c2cc(C(F)(F)F)cc(C(F)(F)F)c2)CC1)=N\C#N . State its measured pIC50.
5.81

Consider the molecule CCCNC(=O)CN1CCC(CNC(=O)c2cc(F)cc(Cl)c2)CC1 . State its measured pIC50.
5.37

Consider the molecule CC(C)(C)C(=O)NCCN1CCC(CNC(=O)c2cccc(OC(F)(F)F)c2)CC1 . State its measured pIC50.
6.44

Consider the molecule CCCNC(=O)NC1(CN2CCC(CNC(=O)c3cc(C(F)(F)F)cc(C(F)(F)F)c3)CC2)CCCC1 . State its measured pIC50.
6.20

# credit: patent US8569344B2
